Tested on: Sphaerotheca fuliginea
Assay: Control of cucumber powdery mildew by foliar spray
Type: in vivo
Details: foliar spray 2.0 ppm; inoculation 24 hr. after application; observed 10 days after inoculation
Procedure: The test compound was dissolved in a small amount of acetone and suspended in demineralized distilled water containing a spreader, to a concentration of 7.8 ppm and 2.0 ppm. Young cucumber plants (c.v. Tsukuba-Shiroibo) of 2-leaf stage grown in pots were sprayed sufficiently with the suspension. Spores of Sphaerotheca fuliginea cultured in cucumber plants were collected and suspended in distilled water. […]
outcome.measure: Control Index Preventive Effect

Problem: If you can, please state the reported Control Index Preventive Effect value of OC(Cn1cncn1)(c1ccon1)c1ccc(Cl)cc1Cl (centres unmarked) .
Result: 100
